Just for reference, PubChem BioAssay is where these values come from.

test: basal S. cerevisiae growth modulation, no modifier, primary screen, OD600, strain BY4716, 24 h, basal condition (AID 1173); details: OD600, 24 h, higher = more signal, called active from +8 up or from −8 down
measured metric: z-score

[[record]]
compound = "COc1c(C)cc(-c2cc3c(c(-c4ccccc4)n2)[Si](C(C)C)(C(C)C)OC3)cc1C"
measured_metric = "z-score"
reported = 0.256

[[record]]
compound = "COc1ccc(C(O)C2C=CC3C(=O)N(Cc4ccccc4)C(=O)C3N2n2cnnc2)c2ccccc12 (stereo not given)"
measured_metric = "z-score"
reported = 0.373

[[record]]
compound = "CCOC(=O)C[C@H]1[C@H](OC(=O)c2ccccc2-c2ccccc2)[C@@H](NC(=O)CC(C)C)c2cc(OCCCO)ccc2N1C(=O)c1ccc2ccccc2n1"
measured_metric = "z-score"
reported = 0.706

[[record]]
compound = "CC(C)(C)OC(=O)CC[C@]1(C(=O)O)N=C(c2ccc(OCCCO)cc2)O[C@H]1c1ccccc1"
measured_metric = "z-score"
reported = -0.739

[[record]]
compound = "[N-]=[N+]=Nc1ccccc1C[C@@]1(C(=O)O)N=C(c2ccc(OCCCO)cc2)O[C@@H]1c1ccccc1"
measured_metric = "z-score"
reported = -2.01

[[record]]
compound = "NCCCCCCNC(=O)[C@H]1C[C@H]2C(=O)N[C@@H](Cc3ccccc3)C(=O)N2[C@H]1c1ccc(O)cc1"
measured_metric = "z-score"
reported = -0.68

[[record]]
compound = "CN(C)CCCNC(=O)[C@@]1(C)c2ccccc2C(=O)N(Cc2cc(C(F)(F)F)cc(C(F)(F)F)c2)[C@H]1c1ccc(CO)cc1"
measured_metric = "z-score"
reported = -0.808

[[record]]
compound = "Cc1ccc(S[C@]2(C(=O)NCC(F)(F)F)CC(=O)N(Cc3ccccc3)[C@@H]2c2ccc(CO)cc2)cc1"
measured_metric = "z-score"
reported = -0.185

[[record]]
compound = "CN(C)CCCNC(=O)[C@@H]1c2ccccc2C(=O)N(Cc2ccc(OC(F)(F)F)cc2)[C@H]1c1ccc(CO)cc1"
measured_metric = "z-score"
reported = 0.0639

[[record]]
compound = "[N-]=[N+]=Nc1ccccc1[C@H]1OC(c2ccc(OCCCO)cc2)=N[C@@]1(CCS(=O)(=O)c1ccccc1)C(=O)N1CCCCC1"
measured_metric = "z-score"
reported = -0.0728

[[record]]
compound = "C=CC[C@@]1(C(=O)N2CCCCC2)N=C(c2ccc(OCCCO)cc2)O[C@@H]1c1ccccc1"
measured_metric = "z-score"
reported = -3.63

[[record]]
compound = "COc1ccc(NC(=O)O[C@H]2[C@H](OC(=O)Nc3ccc4c(c3)OCO4)[C@@H](OC(=O)Nc3ccc4c(c3)OCO4)[C@@H](OC)O[C@@H]2CO)cc1"
measured_metric = "z-score"
reported = 1.96

[[record]]
compound = "COc1cc(CO)cc(I)c1O[C@H]1C=C(C(=O)NCCO)C[C@@H](N(CC2CCCCC2)C(=O)c2ccc(C(F)(F)F)cc2)[C@@H]1O"
measured_metric = "z-score"
reported = -1.02

[[record]]
compound = "[N-]=[N+]=NCc1ccccc1C[C@@]1(C(=O)NCCN2CCOCC2)N=C(c2ccc(OCCCO)cc2)O[C@@H]1c1ccccc1N=[N+]=[N-]"
measured_metric = "z-score"
reported = -1.22

[[record]]
compound = "O=C1C2C=CC(C(O)c3cc(C(F)(F)F)cc(C(F)(F)F)c3)N(Nc3ccc([N+](=O)[O-])cc3)C2C(=O)N1c1ccccc1 (stereo not given)"
measured_metric = "z-score"
reported = 0.55


----------
assay: P. aeruginosa biofilm formation inhibitors, primary screen, strain PAO1, LB-PBS medium, absorbance 600 nm (AID 1176); also: test concentration not given here; settings: P. aeruginosa PAO1 growth/biofilm, A600, 12 h; higher = more signal
Kind request: treat 0.5 as inclusive, so z-score at 0.5 or higher is 1.0, anything lower is 0.0.

[[record]]
molecule = "COc1ccc(CCNC(=O)[C@@]2(Sc3ccc(C)cc3)CC(=O)N(Cc3cc(C(F)(F)F)cc(C(F)(F)F)c3)[C@@H]2c2ccc(CO)cc2I)cc1"
qualitative_label = 1.0

[[record]]
molecule = "O=C(O)[C@H]1C[C@H]2C(=O)N3CCC[C@H]3C(=O)N2[C@H]1c1cccc(OCCO)c1"
qualitative_label = 0.0

[[record]]
molecule = "O=C1c2ccccc2[C@](Cc2ccccc2I)(C(=O)NCCN2CCOCC2)[C@H](c2ccc(CO)cc2)N1Cc1ccccc1"
qualitative_label = 0.0

[[record]]
molecule = "C=C(COC)/C(=C/C[C@@H](OC(=O)c1ccncc1)c1ccc(CO)o1)c1cnc2ccccc2c1"
qualitative_label = 0.0

[[record]]
molecule = "C=CC[C@@H](OC(=O)Nc1ccc(OC)cc1)c1ccc(OCCO)cc1"
qualitative_label = 0.0

[[record]]
molecule = "COC(=O)[C@@]1(Cc2ccc(OC)cc2)[C@H]2c3cc(C(=O)N4CCCC4)n(CCc4cc5ccccc5[nH]4)c3C[C@H]2CN1C(=O)c1ccccc1"
qualitative_label = 1.0

[[record]]
molecule = "O=C1O[C@@H](c2ccccc2)[C@@H](c2ccccc2)N2[C@@H](c3ccccc3OCCO)[C@]3(C(=O)Nc4ccc(C#CCCO)cc43)[C@@H](C(=O)N3CCN(c4ncccn4)CC3)[C@H]12"
qualitative_label = 0.0

[[record]]
molecule = "CC(C)c1ccc(NN2C(C(O)c3ccco3)C=CC3C(=O)N(c4ccccc4)C(=O)C32)cc1 (centres undefined)"
qualitative_label = 1.0

[[record]]
molecule = "COc1ccc([Si](C)(C)[C@@H]2[C@@H](CCn3cc([C@H](O)c4ccccc4)nn3)O[C@]3(C(=O)N(Cc4ccc(N5CCOC5=O)cc4)c4ccccc43)[C@H]2C)cc1"
qualitative_label = 0.0

[[record]]
molecule = "CC(C)CCC[C@@H](C)[C@H]1CC[C@@]2(C)C3=C(CC[C@]12C)[C@@]1(C)CC[C@H](OC(=O)c2ccc(Br)cc2)C(C)(C)C1CC3 (some centres undefined)"
qualitative_label = 0.0

[[record]]
molecule = "CCOC(=O)[C@H]1C/C=C/C[C@H](C(=O)OCC)C(=O)O[C@H]2[C@@H](OC)O[C@H](CO)[C@@H](OC(=O)CCc3ccccc3)[C@@H]2OC1=O"
qualitative_label = 1.0

[[record]]
molecule = "[N-]=[N+]=Nc1ccccc1C[C@]1(C(=O)NCc2ccccc2)N=C(c2ccc(OCCCO)cc2)O[C@H]1c1ccccc1"
qualitative_label = 1.0

[[record]]
molecule = "CCCCN1CC=CC23O[C@@H]4C=CCOC(=O)[C@@H]4[C@H]2C(=O)N(C(C)CO)[C@@H]3C1=O (some centres undefined)"
qualitative_label = 0.0


----------
assay: basal MM1S mitochondrial membrane potential changes, profiling panel, cell-based, JC-1 fluorescence, 24 h, 100 nL compound (AID 1170); conditions: higher = more signal; also: test concentration not given here
Kind request: treat -0.5 as inclusive, so z-score at -0.5 or higher is True, anything lower is False.

[[record]]
compound = "COCCOC(=O)N1C(=O)[C@@]2(c3cc(C#CC4=CCCCC4)ccc31)[C@H](c1ccccc1OCCO)N1[C@H](c3ccccc3)[C@H](c3ccccc3)OC(=O)[C@H]1[C@@H]2C(=O)N1CCc2cc(OC)c(OC)cc2C1"
qualitative_label = "False"

[[record]]
compound = "COc1ccc([Si](C)(C)[C@H]2[C@H](CCn3cc(CCO)nn3)O[C@@]3(C(=O)N(Cc4ccc(N5C(=O)c6cccc7cccc5c67)cc4)c4ccccc43)[C@@H]2C)cc1"
qualitative_label = "False"

[[record]]
compound = "CCCCC(=C=CC[C@@H](O)c1ccc(OCCO)cc1)C[C@@H](O)COCc1ccccc1"
qualitative_label = "False"

[[record]]
compound = "CO[C@H]1O[C@H](CO)[C@@H](OC(=O)Nc2ccc(C(F)(F)F)cc2)[C@H](OC(=O)Nc2ccc3c(c2)OCO3)[C@H]1OC(=O)Nc1ccc2c(c1)OCO2"
qualitative_label = "False"

[[record]]
compound = "C=C(CCCC)/C(=C/C[C@@H](OC(=O)c1ccncc1)c1cccc(OCCO)c1)c1cnc2ccccc2c1"
qualitative_label = "True"

[[record]]
compound = "[N-]=[N+]=NCc1ccccc1C[C@@]1(C(N)=O)N=C(c2ccc(OCCCO)cc2)O[C@@H]1c1ccccc1CN=[N+]=[N-]"
qualitative_label = "True"

[[record]]
compound = "C=CC1c2cc(O)c(OC)cc2CCN1Cc1sc2ccccc2c1Cl (stereo not given)"
qualitative_label = "True"

[[record]]
compound = "O=C(N1CCCCC1)[C@@]1(Cc2ccccc2)COC(c2ccc(OCCCO)cc2)=N1"
qualitative_label = "False"

[[record]]
compound = "C=C[C@@H](C)[C@H](OC(=O)Nc1ccc(SC)cc1)c1ccc(OCCO)cc1"
qualitative_label = "False"

[[record]]
compound = "C=CCC(OC(C)=O)[C@@H]1[C@@H](N(Cc2ccc(-c3ccccc3)cc2)C(=O)c2cccc3ccccc23)c2cc(OCCCO)ccc2N1C(=O)Cc1ccc2ccccc2c1 (stereo not given in full)"
qualitative_label = "True"

[[record]]
compound = "C[N+](C)(C)CCCC[C@@H]1NC(=O)[C@@H]2C[C@H](C(=O)O)[C@H](c3ccc(O)cc3)N2C1=O"
qualitative_label = "True"

[[record]]
compound = "C=CC[C@@]1(C(=O)N2CCCCC2)N=C(c2ccc(OCCCO)cc2)O[C@@H]1c1ccccc1"
qualitative_label = "True"

[[record]]
compound = "CCCN1C(=O)[C@]2(Cc3ccccc3)N=C(c3ccc(OCCCO)cc3)O[C@@H]2c2ccccc21"
qualitative_label = "False"

[[record]]
compound = "CC(C)CNC(=O)[C@@H]1c2ccccc2C(=O)N(Cc2cc(F)cc(C(F)(F)F)c2)[C@H]1c1ccc(CO)cc1"
qualitative_label = "True"

[[record]]
compound = "COC(=O)c1c(CC[C@@H](CO)NC(=O)N[C@H](Cn2cc(-c3ccccc3C)nn2)C(C)C)oc(C(C)=O)c1C(=O)OC"
qualitative_label = "False"

